Source of measurements: paper PMC5540273

- Tested on: EIF2AK1;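 further: KINOMEscan kinase panel screen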
- experimentalParameters: concentration: 1 μM, replicates: in singlicate; n = 1
Would you mind telling me the reported %Inh of each entry?
Express it in %; write the number only.

Inquiry: Need %Inh of Cn1cc(-c2ccc3c(c2)CCN3C(=O)Cc2cccc(Cl)c2)c2c(N)ncnc21 , thanks.
Reply text: 89

Inquiry: Need %Inh of O=C(Nc1cccc(-c2nn3ccccc3c2-c2ccnc(Nc3cccc(C(F)(F)F)c3)n2)c1)c1c(F)cccc1F , thanks.
Reply text: 0

Inquiry: Need %Inh of O=c1[nH]cc(-c2ccc(N3CCOCC3)cc2)c2sc(-c3cn[nH]c3)cc12 , thanks.
Reply text: 0

Inquiry: Need %Inh of CN(C)S(=O)(=O)c1cc(-c2ccc3nccc(-c4cccc(S(N)(=O)=O)c4)c3c2)cnc1N , thanks.
Reply text: 8

Inquiry: Need %Inh of COc1cc(Nc2nccc(N3CCC(NC(=O)c4cc5ccccc5s4)C3)n2)cc(OC)c1OC (centres unmarked) , thanks.
Reply text: 0

Inquiry: Need %Inh of c1ccc(-c2n[nH]cc2Nc2ccnc3ccccc23)nc1 , thanks.
Reply text: 0

Inquiry: Need %Inh of C[C@@H](Oc1cc(-n2cnc3cc(-c4ccnc(NCCS(C)(=O)=O)c4)ccc32)sc1C(N)=O)c1ccccc1Cl , thanks.
Reply text: 1

Inquiry: Need %Inh of COC(=O)Nc1nc2ccc(Oc3ccc(NC(=O)Nc4cc(C(F)(F)F)ccc4F)cc3)cc2n1C.Cl , thanks.
Reply text: 0

Inquiry: Need %Inh of Nc1ncnc2c1nc(-c1ccccc1)n2-c1ccccc1 , thanks.
Reply text: 20

Inquiry: Need %Inh of Nc1ncc(-c2cccnc2)c2scc(-c3ccc4c(c3)CCN4C(=O)Cc3ccccc3)c12 , thanks.
Reply text: 25

Inquiry: Need %Inh of Cc1cccc(Nc2nc(N[C@H]3CCNC3)ncc2C(N)=O)c1.Cl , thanks.
Reply text: 22

Inquiry: Need %Inh of O=C(NC1CCN(c2ccnc(Nc3ccc(F)cc3)n2)C1)c1cc2ccccc2s1 (centres unmarked) , thanks.
Reply text: 0

Inquiry: Need %Inh of C[C@@H]1CC[C@@H](C(=O)Nc2ccccc2)CN1c1cc(-c2ccc3c(N)n[nH]c3c2)nc(N)n1 , thanks.
Reply text: 0

Inquiry: Need %Inh of Cl.NC(=O)c1cccc(Nc2nccc(Nc3ccc(Oc4c(Cl)cccc4Cl)c(Cl)c3)n2)c1 , thanks.
Reply text: 13

Inquiry: Need %Inh of CC(=O)N1CCN(c2ccc(Nc3nccc(-c4sc(C(C)C)nc4-c4cccc(NS(=O)(=O)c5cccc(Cl)c5)c4)n3)cn2)CC1 , thanks.
Reply text: 19

Inquiry: Need %Inh of Cc1ccc(S(=O)(=O)Nc2ccc(Nc3nccc(Nc4cccc5[nH]ncc45)n3)cc2)cc1 , thanks.
Reply text: 0

Inquiry: Need %Inh of COc1cc(Nc2nccc(-c3c(-c4cccc(NC(=O)c5c(F)cccc5F)c4)nn4ncccc34)n2)cc(OC)c1OC , thanks.
Reply text: 0

Inquiry: Need %Inh of Cc1ccc(F)c(C(=O)Nc2cccc(-c3nn4ccccc4c3-c3ccnc(Nc4cccc(F)c4)n3)c2)c1F , thanks.
Reply text: 9

Inquiry: Need %Inh of O=C(Nc1ccccc1F)NC1CCN(c2ccnc(Nc3ccc(F)cc3)n2)CC1 , thanks.
Reply text: 0

Inquiry: Need %Inh of COc1cc(Nc2ncc3c(C)nc(-c4cc5ccccc5[nH]4)n3n2)cc(OC)c1OC , thanks.
Reply text: 0
